target: Solute carrier organic anion transporter family member 1B3 (Homo sapiens, UniProt Q9NPD5); details: chinese hamster, cho, 10 µM
Sequence (Q9NPD5 whole entry): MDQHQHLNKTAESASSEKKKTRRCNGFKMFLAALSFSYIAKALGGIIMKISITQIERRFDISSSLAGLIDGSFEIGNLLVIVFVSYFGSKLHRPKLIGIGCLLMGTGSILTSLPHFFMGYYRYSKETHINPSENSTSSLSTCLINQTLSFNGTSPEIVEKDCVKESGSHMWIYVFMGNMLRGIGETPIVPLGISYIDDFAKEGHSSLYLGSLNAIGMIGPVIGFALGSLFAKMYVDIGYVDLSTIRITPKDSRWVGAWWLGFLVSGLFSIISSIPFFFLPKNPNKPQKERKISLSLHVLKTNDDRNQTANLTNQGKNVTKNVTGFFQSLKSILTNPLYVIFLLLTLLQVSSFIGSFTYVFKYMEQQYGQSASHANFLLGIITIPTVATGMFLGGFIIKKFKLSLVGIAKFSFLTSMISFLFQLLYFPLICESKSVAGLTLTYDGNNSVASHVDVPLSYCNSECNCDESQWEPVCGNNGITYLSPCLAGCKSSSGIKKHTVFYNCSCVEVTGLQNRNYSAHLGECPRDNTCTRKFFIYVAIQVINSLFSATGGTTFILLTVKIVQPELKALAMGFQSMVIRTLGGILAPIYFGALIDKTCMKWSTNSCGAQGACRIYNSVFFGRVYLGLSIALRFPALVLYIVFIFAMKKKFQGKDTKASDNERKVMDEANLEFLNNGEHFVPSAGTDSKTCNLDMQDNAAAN
ATTRIBUTE_MEASURED: residual activity

Worked cases, answers included:
compound="CC1(C)O[C@@H]2C[C@H]3[C@@H]4C[C@H](F)C5=CC(=O)C=C[C@]5(C)[C@H]4[C@@H](O)C[C@]3(C)[C@]2(C(=O)CO)O1 [FLUNISOLIDE]" study_system="Solute carrier organic anion transporter family member 1B3 (Homo sapiens, UniProt Q9NPD5)" result=77.49%
compound="CC1=NS(=O)(=O)c2cc(Cl)ccc2N1 [DIAZOXIDE]" study_system="Solute carrier organic anion transporter family member 1B3 (Homo sapiens, UniProt Q9NPD5)" result=91.61%
compound="CN[C@@H](C)[C@@H](O)c1ccccc1.Cl [PSEUDOEPHEDRINE HYDROCHLORIDE]" study_system="Solute carrier organic anion transporter family member 1B3 (Homo sapiens, UniProt Q9NPD5)" result=102.7%
compound="COC(=O)N/N=C/c1c[n+]([O-])c2ccccc2[n+]1[O-] [CARBADOX]" study_system="Solute carrier organic anion transporter family member 1B3 (Homo sapiens, UniProt Q9NPD5)" result=107.6%

# query: residual activity of entry O=C(O)C1CC([C@@H]2CCCCN2)CN2CCCCC12 (some centres undefined) [APHYLLIC ACID]
100.7%

Param item: NC(=O)CN1CCCC1=O
103.1%

// next record CNCCCN1c2ccccc2CCc2ccccc21.Cl [DESIPRAMINE HYDROCHLORIDE]
96.51%

Same lookup for COc1ccc2c(C)cc(=O)oc2c1 [HYMECROMONE METHYL ETHER] , please.
127.1%

Similarly, CC(C)(C)NCC(O)c1cc(O)cc(O)c1.O=S(=O)(O)O (centres undefined) ?
94.09%

* * *

molecular target: Solute carrier organic anion transporter family member 1B1 (Homo sapiens); settings: chinese hamster, cho, 10 µM
Sequence (Q9Y6L6 whole entry): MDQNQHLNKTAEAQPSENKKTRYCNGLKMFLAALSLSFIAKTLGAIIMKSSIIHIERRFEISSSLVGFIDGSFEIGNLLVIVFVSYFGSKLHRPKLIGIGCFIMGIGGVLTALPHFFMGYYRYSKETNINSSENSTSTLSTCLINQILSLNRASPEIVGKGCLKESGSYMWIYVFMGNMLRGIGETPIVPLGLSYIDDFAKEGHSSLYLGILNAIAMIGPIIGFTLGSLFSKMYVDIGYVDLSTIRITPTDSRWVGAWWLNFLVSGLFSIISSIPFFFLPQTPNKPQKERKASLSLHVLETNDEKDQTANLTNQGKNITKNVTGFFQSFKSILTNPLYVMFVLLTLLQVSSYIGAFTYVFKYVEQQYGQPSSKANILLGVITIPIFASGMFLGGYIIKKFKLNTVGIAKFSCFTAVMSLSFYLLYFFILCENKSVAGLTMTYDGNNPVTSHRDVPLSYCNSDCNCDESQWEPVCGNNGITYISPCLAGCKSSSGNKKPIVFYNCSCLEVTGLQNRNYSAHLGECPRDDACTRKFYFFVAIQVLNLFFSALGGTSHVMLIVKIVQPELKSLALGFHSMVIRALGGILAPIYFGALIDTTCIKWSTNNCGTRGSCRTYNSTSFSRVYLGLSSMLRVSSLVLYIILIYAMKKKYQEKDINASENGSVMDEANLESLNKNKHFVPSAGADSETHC
ATTRIBUTE_MEASURED: residual activity

compound=COc1cc2c(c(OC)c1OC)-c1ccc(=O)c(O)cc1[C@@H](NC(C)=O)CC2 study_system="Solute carrier organic anion transporter family member 1B1 (Homo sapiens)" result=124%
compound="C[C@]12CCC(=O)C=C1CC[C@@H]1[C@@H]2[C@@H](O)C[C@@]2(C)[C@H]1CC[C@]2(O)C(=O)CO [HYDROCORTISONE]" study_system="Solute carrier organic anion transporter family member 1B1 (Homo sapiens)" result=98.24%
compound=O=C(O)/C=C(\CC(=O)O)C(=O)O study_system="Solute carrier organic anion transporter family member 1B1 (Homo sapiens)" result=102.5%
compound=C[C@H]1COc2c(N3CCN(C)CC3)c(F)cc3c(=O)c(C(=O)O)cn1c23.C[C@H]1COc2c(N3CCN(C)CC3)c(F)cc3c(=O)c(C(=O)O)cn1c23.O study_system="Solute carrier organic anion transporter family member 1B1 (Homo sapiens)" result=117.4%
compound=CNC(=O)ON=C(C)SC study_system="Solute carrier organic anion transporter family member 1B1 (Homo sapiens)" result=80.5%
compound=CC[C@H]1OC(=O)[C@H](C)[C@@H](O[C@H]2C[C@@](C)(OC)[C@@H](O)[C@H](C)O2)[C@H](C)[C@@H](O[C@@H]2O[C@H](C)C[C@H](N(C)C)[C@H]2O)[C@](C)(O)C[C@@H](C)[C@@H]2N[C@@H](COCCOC)O[C@H]([C@H]2C)[C@]1(C)O study_system="Solute carrier organic anion transporter family member 1B1 (Homo sapiens)" result=109.1%

// below: residual activity requested for another compound
Entry COc1ccc2cc(CCC(C)=O)ccc2c1 has what residual activity?
203%
